# Tested on: SARS-CoV-2
# EXPERIMENT: Inhibitory activity of cytopathic effect (CPE) in HEK293T/ACE2-TMPRSS2 cells
# Type: cell-based
# EXPERIMENTAL_CONTEXT: Severe acute respiratory syndrome coronavirus 2, HEK-293T, 72 h; HEK293T/ACE2-TMPRSS2 cells, cultured 3 days, CellTiter-Glo 2.0 luminescence; read-out: EC50 (50% SARS-CoV-2 infected cell death inhibitory concentration)
pEC50: −log10 of the molar value.
Please respond with reported pEC50 for every item in the list.

[2H]C([2H])([2H])O[C@@H]1CCN(c2cc3c(c(OC)n2)c(=O)n(-c2cnc4cc(F)ccn24)c(=O)n3-c2ccc(F)c(C(F)(F)F)c2)C1 [Compound I-1011]: > 7.00
COc1nc(N2CCC2)cc2c1c(=O)n(-c1cnc3cc(F)ccn13)c(=O)n2-c1ccc(F)c(Cl)c1 [Compound I-1002]: > 7.00
Cn1cnc(Cn2c(=O)c3c4nccnc4c(-c4cc5c(cc4Cl)NC(=O)C5)cc3n(Cc3cc(F)c(F)c(F)c3)c2=O)n1 [Compound I-0933]: 6.00 to 7.00
COc1nc(N2CC[C@@H](O)C2)cc2c1c(=O)n(-c1cncc(OCF)c1)c(=O)n2-c1ccc(F)c(Cl)c1 [Compound I-0956]: > 7.00
CC(C)Nc1cc2c(c(=O)n(Cc3ncn(C)n3)c(=O)n2Cc2cc(F)c(F)c(Cl)c2)c2nccnc12 [Compound I-0575]: > 7.00

Proceed to the following item.
Hello, please tell me recorded pEC50 for this one: Cn1cnc(Cn2c(=O)c3c(cc(-c4cc(C#N)ccc4Cl)n4ncnc34)n(Cc3cc(F)c(F)c(F)c3)c2=O)n1 [Compound I-0645]
6.00 to 7.00

* * *

# TEST_TARGET: SARS-CoV-2 3CL protease (Severe acute respiratory syndrome coronavirus 2, UniProt P0DTD1)
# EXPERIMENT: Inhibitory activity test against SARS-CoV-2 3CL proteases
# Type: biochemical
# EXPERIMENTAL_CONTEXT: read-out: IC50 (50% SARS-CoV-2 3CL protease inhibitory concentration)
pIC50: −log10 of the molar value.
Rule: pIC50 of 8 or more gives rule met; anything lower gives rule not met.

CCC(=O)c1ccc(Cl)c(-c2cc(OC)c3c(=O)n(Cc4ncn(C)n4)c(=O)n(Cc4cc(F)c(F)c(F)c4)c3c2)c1: rule not met

Lab note: next molecule to report on.
In plain terms: is recorded pIC50 at least 8 for O=c1[nH]cccc1Cn1c(=O)c2ccc(N3C[C@H]4C[C@@H]3CN4)cc2n(Cc2cc(F)c(F)c(F)c2)c1=O ?
rule met

* * *

# TEST_TARGET: SARS-CoV-2 3CL protease (Severe acute respiratory syndrome coronavirus 2)
# EXPERIMENT: Inhibitory activity test against SARS-CoV-2 3CL proteases
# Format: biochemical
# EXPERIMENTAL_CONTEXT: read-out: IC50 (50% SARS-CoV-2 3CL protease inhibitory concentration)
PROPERTY_MEASURED: IC50

Example results:
O=c1c2c(=O)n(-c3cnc4cc(F)ccn34)c(=O)n(-c3ccc(F)c(Cl)c3)c2cc2n1C[C@@H]1CCCN21 [Compound I-0628]: 26 nM
COc1nc(-c2cc(C#N)ccc2Cl)cc2c1c(=O)n(-c1cc(C)cnn1)c(=O)n2Cc1cc(F)c(F)c(F)c1 [Compound I-0929]: < 100 nM
COc1cc(-c2nc(NS(C)(=O)=O)ccc2Cl)cc2c1c(=O)n(-c1cncc(C)c1)c(=O)n2Cc1cc(F)c(F)c(F)c1 [Compound I-0078]: < 100 nM
Cn1cnc(Cn2c(=O)c3c4nccnc4c(-c4cc(C(C)(C)O)c(F)cc4Cl)cc3n(Cc3cc(F)c(F)c(Cl)c3)c2=O)n1 [Compound I-0815]: < 100 nM
COc1cc(-c2cc(C(N)=O)ccc2Cl)cc2c1c(=O)n(-c1cncc(C)c1)c(=O)n2Cc1ccc(F)c(C#N)c1 [Compound I-0029]: 7.8 nM

Shift focus to the following entry.
Using the record for Cn1cnc(Cn2c(=O)c3c4c(c(N5C[C@H]6C[C@@H]5CN6)cc3n(Cc3cc(F)c(F)c(F)c3)c2=O)CCO4)n1 [Compound I-0429] , state its measured IC50.
< 100 nM

* * *

# Tested on: SARS-CoV-2
# EXPERIMENT: Inhibitory activity of cytopathic effect (CPE) in HEK293T/ACE2-TMPRSS2 cells
# Assay type: cell-based
# EXPERIMENTAL_CONTEXT: Severe acute respiratory syndrome coronavirus 2, HEK-293T, 72 h; HEK293T/ACE2-TMPRSS2 cells, cultured 3 days, CellTiter-Glo 2.0 luminescence; read-out: EC50 (50% SARS-CoV-2 infected cell death inhibitory concentration)
Would you kindly list EC50 for each of these compounds?

COc1cc(N2CCCC2)cc2c1c(=O)n(Cc1ncn(C)n1)c(=O)n2Cc1cc(Cl)ccc1Br: 100 to 1000 nM

I have 5 compounds here; please give me EC50 for each one.
1. COc1nc(N2CC[C@@H](NC(C)=O)C2)cc2c1c(=O)n(-c1cnc3cc(F)ccn13)c(=O)n2-c1ccc(F)c(Cl)c1
2. COc1cc(N2CCCC2)cc2c1c(=O)n(Cc1ncn(C)n1)c(=O)n2Cc1cc(Cl)ccc1Cl
3. C=Cc1cc2c(c(OC)n1)c(=O)n(-c1cnc3cc(F)ccn13)c(=O)n2-c1ccc(F)c(Cl)c1
4. Cn1cnc(Cn2c(=O)c3c4c(c(N5CCC(F)(F)CC5)cc3n(Cc3cc(F)c(F)c(F)c3)c2=O)CCO4)n1
5. COc1nc(N2CCC(F)(F)C2)cc2c1c(=O)n(-c1cc(C)cnn1)c(=O)n2-c1ccc(F)c(Cl)c1

1: 100 to 1000 nM; 2: 100 to 1000 nM; 3: 100 to 1000 nM; 4: < 100 nM; 5: < 100 nM

Need EC50 for each of these compounds.
1. COc1nc(N2CCC3(CCOC3)C2)cc2c1c(=O)n(-c1cnc3cc(F)ccn13)c(=O)n2-c1ccc(F)c(Cl)c1 (centres unmarked)
2. COc1cc(-c2cccc(C#N)c2Cl)cc2c1c(=O)n(Cc1ncn(C)n1)c(=O)n2Cc1cc(F)c(F)c(F)c1
3. COc1nc(N2CCC(n3cccn3)C2)cc2c1c(=O)n(-c1cnc3cc(F)ccn13)c(=O)n2-c1ccc(F)c(Cl)c1 (centres unmarked)

["< 100 nM", "100 to 1000 nM", "< 100 nM"]

Kindly give each listed record's EC50.
1. COc1nc(NC2CCCC2)cc2c1c(=O)n(-c1cnc3cc(F)ccn13)c(=O)n2-c1ccc(F)c(Cl)c1
2. COc1nc(N2C[C@@H]3C[C@H]2CO3)cc2c1c(=O)n(-c1cncc(C#N)c1)c(=O)n2-c1ccc(F)c(F)c1
3. CCn1cnc(Cn2c(=O)c3c(OC)nc(N4CC[C@@H](F)C4)cc3n(Cc3cc(F)c(F)c(F)c3)c2=O)n1

1. < 100 nM
2. < 100 nM
3. < 100 nM

State recorded EC50 for all listed compounds.
1. COc1nc(N2CC[C@@H](C#N)C2)cc2c1c(=O)n(-c1cncc(OCF)c1)c(=O)n2-c1ccc(F)c(F)c1
2. Cn1cnc(Cn2c(=O)c3c4nccnc4c(-c4c(F)cc(F)cc4F)cc3n(Cc3cc(F)c(F)c(Cl)c3)c2=O)n1

1. < 100 nM
2. < 100 nM

* * *

Answer each item with its documented EC50.
# System: SARS-CoV-2
# EXPERIMENT: Inhibitory activity of cytopathic effect (CPE) in HEK293T/ACE2-TMPRSS2 cells
# Assay type: cell-based
# EXPERIMENTAL_CONTEXT: Severe acute respiratory syndrome coronavirus 2, HEK-293T, 72 h; 50% SARS-CoV-2 infected cell death inhibitory concentration; HEK293T/ACE2-TMPRSS2 cells; CellTiter-Glo 2.0 after 3 days culture; read-out: EC50
Numbers only, in nM.

The cases that follow already have their EC50 on record.
CC(C)=Cc1cc2c(c(=O)n(Cc3ncn(C)n3)c(=O)n2Cc2cc(F)c(F)c(Cl)c2)c2nccnc12: 28.3
[2H]C([2H])([2H])O[C@@H]1CCN(c2cc3c(c(OC)n2)c(=O)n(-c2cnc4cc(F)ccn24)c(=O)n3-c2ccc(F)c(F)c2)C1: 8.65

Would you mind giving EC50 for every compound in the list below?
1. COc1nc2cc(-c3cc(OC)c4c(=O)n(Cc5ncn(C)n5)c(=O)n(Cc5cc(F)c(F)c(Cl)c5)c4c3)c(Cl)cc2[nH]1
2. COc1nc(N2CCC(F)(F)C2)cc2c1c(=O)n(-c1cnc3cc(F)ccn13)c(=O)n2-c1ccc(F)c(Cl)c1
3. COc1nc(N2C[C@@H]3C[C@H]2CO3)cc2c1c(=O)n(-c1cncc(C#N)c1)c(=O)n2-c1ccc(F)c(Cl)c1
4. Cn1cnc(Cn2c(=O)c3c4ncn(C)c4c(N4CC[C@@H](F)C4)cc3n(Cc3cc(F)c(F)c(F)c3)c2=O)n1 (racemic)

44.1
7.65
5.66
2750
